Reported log10(Kd) values are given for each entry in this list.
# studySystem: T1, Recombinant human DSG2 protein (Leinco Technologies) (human, UniProt Q14126 50-609)
# T1 construct: also called soluble DSG2; soluble recombinant DSG2
# T1 sequence: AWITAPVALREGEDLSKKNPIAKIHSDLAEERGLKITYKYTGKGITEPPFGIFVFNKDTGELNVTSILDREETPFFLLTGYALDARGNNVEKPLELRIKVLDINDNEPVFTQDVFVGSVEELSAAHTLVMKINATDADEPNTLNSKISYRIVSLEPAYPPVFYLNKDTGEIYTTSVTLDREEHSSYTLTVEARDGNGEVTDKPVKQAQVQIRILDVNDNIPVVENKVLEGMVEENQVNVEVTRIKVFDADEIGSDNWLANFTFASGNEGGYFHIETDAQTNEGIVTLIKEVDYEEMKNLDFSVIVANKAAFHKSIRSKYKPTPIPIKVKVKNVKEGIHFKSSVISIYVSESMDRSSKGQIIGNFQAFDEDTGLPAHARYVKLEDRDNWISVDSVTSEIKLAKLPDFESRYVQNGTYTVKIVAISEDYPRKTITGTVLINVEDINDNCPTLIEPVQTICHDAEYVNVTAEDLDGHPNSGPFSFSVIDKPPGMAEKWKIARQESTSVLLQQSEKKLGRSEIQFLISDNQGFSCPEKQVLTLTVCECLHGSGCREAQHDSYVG
# testDescription: SPR (BIAcore 3000), DSG2 immobilised on the sensor chip, knobs injected at 2.5 to 10 µg/ml, BIAeval
Values below are the log10 of the recorded Kd, with nM as the unit.

Some solved entries appear below for comparison.
{"binder": "Ad3 fiber knob mutant F224L without dimerization domain (ligand, range 108-319; not shown: N-terminal 6-His tag of pQE30 and linker) NKLCSKLGNGLTFDSSNSIALKNNTLWTGPKPEANCIIEYGKQNPDSKLTLILVKNGGIVNGYVTLMGASDYVNTLFKNKNVSINVELYFDATGHILPDSSSLKTDLELKYKQTADLSARGFMPSTTAYPFVLPNAGTHNENYIFGQCYYKASDGALFPLEVTVMLNKRLPDSRTSYVMTFLWSLNAGLAPETTQATLITSPFTFSYIREDD", "valueReported": 1.90}
{"binder": "Ad3 fiber knob mutant K217E+F224S without dimerization domain (ligand, range 108-319; also called K217E/F224S mutant (non-dimerized form); not shown: N-terminal 6-His tag of pQE30 and linker) NKLCSKLGNGLTFDSSNSIALKNNTLWTGPKPEANCIIEYGKQNPDSKLTLILVKNGGIVNGYVTLMGASDYVNTLFKNKNVSINVELYFDATGHILPDSSSLKTDLELEYKQTADSSARGFMPSTTAYPFVLPNAGTHNENYIFGQCYYKASDGALFPLEVTVMLNKRLPDSRTSYVMTFLWSLNAGLAPETTQATLITSPFTFSYIREDD", "valueReported": 1.73}

[Q] Fill blank: measured log10(Kd) of the binder wt Ad3 fiber knob without dimerization domain (ligand, range 108-319; also called wt Ad3knob/noDD; wt Ad3 knob (noDD); not shown: N-terminal 6-His tag of pQE30 and the Gly/Ser linker encoded by primer P1) NKLCSKLGNGLTFDSSNSIALKNNTLWTGPKPEANCIIEYGKQNPDSKLTLILVKNGGIVNGYVTLMGASDYVNTLFKNKNVSINVELYFDATGHILPDSSSLKTDLELKYKQTADFSARGFMPSTTAYPFVLPNAGTHNENYIFGQCYYKASDGALFPLEVTVMLNKRLPDSRTSYVMTFLWSLNAGLAPETTQATLITSPFTFSYIREDD is ____.
[A] 4.00

[Q] Note, next up: Ad3 fiber knob mutant N293S without dimerization domain (ligand, range 108-319; also called N293S/noDD; not shown: N-terminal 6-His tag of pQE30 and linker) NKLCSKLGNGLTFDSSNSIALKNNTLWTGPKPEANCIIEYGKQNPDSKLTLILVKNGGIVNGYVTLMGASDYVNTLFKNKNVSINVELYFDATGHILPDSSSLKTDLELKYKQTADFSARGFMPSTTAYPFVLPNAGTHNENYIFGQCYYKASDGALFPLEVTVMLNKRLPDSRTSYVMTFLWSLSAGLAPETTQATLITSPFTFSYIREDD
[A] 1.86

[Q] Another binder: Ad3 fiber knob mutant E248G+K258E without dimerization domain (ligand, range 108-319; not shown: N-terminal 6-His tag of pQE30 and linker) NKLCSKLGNGLTFDSSNSIALKNNTLWTGPKPEANCIIEYGKQNPDSKLTLILVKNGGIVNGYVTLMGASDYVNTLFKNKNVSINVELYFDATGHILPDSSSLKTDLELKYKQTADFSARGFMPSTTAYPFVLPNAGTHNGNYIFGQCYYEASDGALFPLEVTVMLNKRLPDSRTSYVMTFLWSLNAGLAPETTQATLITSPFTFSYIREDD
[A] 1.69
